Test: NCI Yeast Anticancer Drug Screen. Data for the cln2 rad14 strain (AID 165)
Conditions: S. cerevisiae cln2 rad14 strain, at 50.0 µM
Compounds without any hit were thinned out: in the full panel of roughly 79,000, 15% have a hit. Calls of active or inactive are those of the source. No stated cut-off is given here; in the data, active means growth inhibition above about 70%; inactive means the rest.
Please state which outcome applies, choosing from YES (active), NO (inactive)

Recorded results for 4 compounds are shown here.
>  <compound>
CSc1ncccc1C(=O)[O][Sn]([c]1ccccc1)([c]1ccccc1)[c]1ccccc1

>  <category>
YES

$$$$
>  <compound>
CC1CC[N-]CC1.CC1CC[N-]CC1.CC1CC[N-]CC1.CC1CC[N-]CC1.CS(C)=O.CS(C)=O.[Cl-].[Cl-].[Cl-].[Cl-].[Pt+4].[Rh+3]

>  <category>
YES

$$$$
>  <compound>
CCOC(=O)/C(Cl)=C(\OCC)C(=O)OCC

>  <category>
NO

$$$$
>  <compound>
CC(C)(C)c1ccc(CN2CCN(C(c3ccccc3)c3ccc(Cl)cc3)CC2)cc1 (stereo not given)

>  <category>
NO

$$$$

Switching to the query record.
Dear all, I need the recorded test outcome for O=C1c2ccc3ccccc3c2CN2C(=O)CCC12 (stereo not given) , thank you.
NO
